RESULT TYPE: pKd
# pKd is unitless: minus log10 of the molar concentration; print number only

pKd of "N[C@@H](Cc1cc(I)c(O)c(I)c1)C(=O)O" on APOBEC3B (Homo sapiens, UniProt Q9UH17)? 7.19

---

RESULT TYPE: Kd (µM)
Give the value, in units of µM, as a plain number.

Kd of N[C@@H](Cc1cc(I)c(O)c(I)c1)C(=O)O [SMC247, 3,5-diiodotyrosine] on KYSE150-APOBEC3B cells (Homo sapiens, UniProt Q9UH17)? 6.14

---

RESULT TYPE: IC50 (nM)
Give the value, in units of nM, as a plain number.

IC50 of N[C@@H](Cc1cc(I)c(O)c(I)c1)C(=O)O [SMC247, 3,5-diiodotyrosine] on APOBEC3B (Homo sapiens)? 1690

src = paper PMC9639148
